This collection of values is drawn from paper PMC11676667.

- assay info: Plasma pharmacokinetics after single oral dose of Δ8-THCV in MCT oil (LC-MS/MS, non-compartmental analysis)
- Type: in vivo, human
- setup conditions: human, plasma, po, 12.5 mg, 12.5 mg single oral Δ8-THCV in MCT oil; Mean (±SD)
measurement label: Cmax
A complete answer gives the number followed by the unit.

Recorded Cmax, per entry:
# molecule, Cmax
records = [
    ("CCCc1cc(O)c2c(c1)OC(C)(C)[C@@H]1CC=C(C(=O)O)C[C@@H]21 [Δ8-THCV-COOH, 11-nor-9-carboxy-Δ8-THCV]", "99 ng/mL"),
    ("CCCc1cc(O)c2c(c1)OC(C)(C)[C@@H]1CC=C(CO)C[C@@H]21 (racemic) [11-OH-Δ8-THCV, (±)-11-hydroxy-Δ8-THCV]", "0.8 ng/mL"),
    ("CCCc1cc(O)c2c(c1)OC(C)(C)[C@@H]1CCC(C(=O)O)=C[C@@H]21 [Δ9-THCV-COOH, 11-nor-9-carboxy-Δ9-THCV]", "2.7 ng/mL"),
]

Now examine the next entry.
Q) Cmax for CCCc1cc(O)c2c(c1)OC(C)(C)[C@@H]1CC=C(C)C[C@@H]21 [Δ8-THCV, Δ8-tetrahydrocannabivarin] ?
A) 1.6 ng/mL

----------
- assay info: Plasma pharmacokinetics after single oral dose of Δ8-THCV in MCT oil (LC-MS/MS, non-compartmental analysis)
- Type: in vivo, human
- Parameters: unit not given here
- setup conditions: 50 mg single oral Δ8-THCV in MCT oil; plasma; Median (Range)
# Clast (last quantifiable concentration) listing for each entry below

These recorded examples may help you get a feel for the data.
# compound, observed result
records = [
    ("CCCc1cc(O)c2c(c1)OC(C)(C)[C@@H]1CC=C(CO)C[C@@H]21 (racemic) [11-OH-Δ8-THCV, (±)-11-hydroxy-Δ8-THCV]", "0.8 (0.6–1.5)"),
    ("CCCc1cc(O)c2c(c1)OC(C)(C)[C@@H]1CC=C(C)C[C@@H]21 [Δ8-THCV, Δ8-tetrahydrocannabivarin]", "2.2 (0.6–5.5)"),
    ("CCCc1cc(O)c2c(c1)OC(C)(C)[C@@H]1CC=C(C(=O)O)C[C@@H]21", "148 (78.9–264)"),
]

Q) Field request: Clast (last quantifiable concentration) | item: CCCc1cc(O)c2c(c1)OC(C)(C)[C@@H]1CCC(C(=O)O)=C[C@@H]21
A) 5.2 (2.4–8.5)

----------
- assay info: Plasma pharmacokinetics after single oral dose of Δ8-THCV in MCT oil (LC-MS/MS, non-compartmental analysis)
- Assay type: in vivo, human
- setup conditions: human, plasma, oral, 200 mg, 6 h; 200 mg Δ8-THCV dose; Median (IQ Range)
Parameter concentration at 6 h: see the listing below.
Reply with a number, then the unit it belongs to.

# compound, concentration at 6 h
measured = [
    ("CCCc1cc(O)c2c(c1)OC(C)(C)[C@@H]1CC=C(CO)C[C@@H]21 (racemic) [11-OH-Δ8-THCV, (±)-11-hydroxy-Δ8-THCV]", "3.7 ng/mL"),
    ("CCCc1cc(O)c2c(c1)OC(C)(C)[C@@H]1CC=C(C)C[C@@H]21 [Δ8-THCV, Δ8-tetrahydrocannabivarin]", "21.8 ng/mL"),
    ("CCCCCc1cc(O)c2c(c1)OC(C)(C)[C@@H]1CC=C(C(=O)O)CC21 (single isomer, unassigned; (+)) [Δ8-THC-COOH, (+)-11-nor-Δ8-THC-9-carboxylic acid]", "2 ng/mL"),
]

Q) concentration at 6 h for CCCc1cc(O)c2c(c1)OC(C)(C)[C@@H]1CCC(C)=C[C@@H]21 [Δ9-THCV, Δ9-tetrahydrocannabivarin] ?
A) 0.6 ng/mL

Q) Continue with CCCc1cc(O)c2c(c1)OC(C)(C)[C@@H]1CCC(C(=O)O)=C[C@@H]21
A) 28.5 ng/mL

Q) Also check CCCc1cc(O)c2c(c1)OC(C)(C)[C@@H]1CC=C(C(=O)O)C[C@@H]21
A) 1020 ng/mL

----------
- assay info: Plasma pharmacokinetics after single oral dose of Δ8-THCV in MCT oil (LC-MS/MS, non-compartmental analysis)
- Format: in vivo, human
- setup conditions: human, plasma, po, 12.5 mg, 12.5 mg single oral Δ8-THCV in MCT oil; Median (Range)
measurement label: Cmax (ng/mL)
Give just the number in ng/mL; leave the unit off.

Worked examples, 3 compounds total:
# compound, Cmax / ng/mL
measured = [
    ("CCCc1cc(O)c2c(c1)OC(C)(C)[C@@H]1CC=C(C)C[C@@H]21 [Δ8-THCV, Δ8-tetrahydrocannabivarin]", 1.1),
    ("CCCc1cc(O)c2c(c1)OC(C)(C)[C@@H]1CC=C(C(=O)O)C[C@@H]21", 101),
    ("CCCc1cc(O)c2c(c1)OC(C)(C)[C@@H]1CCC(C(=O)O)=C[C@@H]21", 2.8),
]

Q) Any idea what its Cmax is? The compound is CCCc1cc(O)c2c(c1)OC(C)(C)[C@@H]1CC=C(CO)C[C@@H]21 (racemic) [11-OH-Δ8-THCV, (±)-11-hydroxy-Δ8-THCV]
A) 0.8

----------
concentration at 1 h reference
- assay info: Plasma pharmacokinetics after single oral dose of Δ8-THCV in MCT oil (LC-MS/MS, non-compartmental analysis)
- Type: in vivo, human
- setup conditions: human, plasma, oral, 50 mg, 1 h; 50 mg Δ8-THCV dose; Median (IQ Range)
Report as a plain number; the unit ng/mL is understood.

# compound, measurement label, observed result
data = [
    ("CCCc1cc(O)c2c(c1)OC(C)(C)[C@@H]1CC=C(C(=O)O)C[C@@H]21", "concentration at 1 h", 4.8),
    ("CCCc1cc(O)c2c(c1)OC(C)(C)[C@@H]1CC=C(C)C[C@@H]21 [Δ8-THCV, Δ8-tetrahydrocannabivarin]", "concentration at 1 h", 0),
]

Q) Param item = CCCc1cc(O)c2c(c1)OC(C)(C)[C@@H]1CCC(C(=O)O)=C[C@@H]21 ; retrieve measured concentration at 1 h.
A) 0

----------
- assay info: Plasma pharmacokinetics after single oral dose of Δ8-THCV in MCT oil (LC-MS/MS, non-compartmental analysis)
- Format: in vivo, human
- setup conditions: human, plasma, po, 50 mg, 50 mg single oral Δ8-THCV in MCT oil; plasma; Mean (±SD); read-out: MRT (mean residence time)
Listed below: MRT values for each entry.

Some solved entries appear below for comparison.
# compound, observed result
rows = [
    ("CCCc1cc(O)c2c(c1)OC(C)(C)[C@@H]1CCC(C(=O)O)=C[C@@H]21", "5.5 h"),
    ("CCCc1cc(O)c2c(c1)OC(C)(C)[C@@H]1CC=C(C(=O)O)C[C@@H]21", "5.3 h"),
    ("CCCc1cc(O)c2c(c1)OC(C)(C)[C@@H]1CC=C(CO)C[C@@H]21 (racemic) [11-OH-Δ8-THCV, (±)-11-hydroxy-Δ8-THCV]", "5.7 h"),
]

Kindly consider the entry below.
Q) Could you share which MRT value was measured for CCCc1cc(O)c2c(c1)OC(C)(C)[C@@H]1CC=C(C)C[C@@H]21 [Δ8-THCV, Δ8-tetrahydrocannabivarin] ?
A) 5.2 h

----------
- assay info: Plasma pharmacokinetics after single oral dose of Δ8-THCV in MCT oil (LC-MS/MS, non-compartmental analysis)
- Type: in vivo, human
- setup conditions: human, plasma, oral, 100 mg, 0.5 h; 100 mg Δ8-THCV dose; Mean (SD, %CV)
Parameter: concentration at 0.5 h. Scope: all listed entries.
Reply with just the number (in ng/mL).

// worked examples, concentration at 0.5 h included
# molecule, observed result
rows = [
    ("CCCc1cc(O)c2c(c1)OC(C)(C)[C@@H]1CC=C(CO)C[C@@H]21 (racemic) [11-OH-Δ8-THCV, (±)-11-hydroxy-Δ8-THCV]", 0),
    ("CCCc1cc(O)c2c(c1)OC(C)(C)[C@@H]1CC=C(C(=O)O)C[C@@H]21", 13),
]

Q) # query: concentration at 0.5 h of entry CCCCCc1cc(O)c2c(c1)OC(C)(C)[C@@H]1CC=C(C(=O)O)CC21 (single isomer, unassigned; (+)) [Δ8-THC-COOH, (+)-11-nor-Δ8-THC-9-carboxylic acid]
A) 0

----------
- assay info: Plasma pharmacokinetics after single oral dose of Δ8-THCV in MCT oil (LC-MS/MS, non-compartmental analysis)
- Assay type: in vivo, human
- setup conditions: human, plasma, oral, 100 mg, 2 h; 100 mg Δ8-THCV dose; Mean (SD, %CV)
class 1 means recorded concentration at 2 h is 9 ng/mL or above; class 0 means it is below 9 ng/mL.

Solved entries (count: 4):
# compound, assigned category
data = [
    ("CCCCCc1cc(O)c2c(c1)OC(C)(C)[C@@H]1CC=C(C(=O)O)CC21 (single isomer, unassigned; (+)) [Δ8-THC-COOH, (+)-11-nor-Δ8-THC-9-carboxylic acid]", "class 0"),
    ("CCCc1cc(O)c2c(c1)OC(C)(C)[C@@H]1CCC(C)=C[C@@H]21 [Δ9-THCV, Δ9-tetrahydrocannabivarin]", "class 0"),
    ("CCCc1cc(O)c2c(c1)OC(C)(C)[C@@H]1CC=C(C)C[C@@H]21 [Δ8-THCV, Δ8-tetrahydrocannabivarin]", "class 0"),
    ("CCCc1cc(O)c2c(c1)OC(C)(C)[C@@H]1CC=C(C(=O)O)C[C@@H]21", "class 1"),
]

Next up:
Q) In plain terms: is recorded concentration at 2 h at least 9 ng/mL for CCCc1cc(O)c2c(c1)OC(C)(C)[C@@H]1CC=C(CO)C[C@@H]21 (racemic) [11-OH-Δ8-THCV, (±)-11-hydroxy-Δ8-THCV] ?
A) class 0
